Overview of recorded IC50 for various compounds
biological target: Dihydrofolate reductase (Rattus norvegicus)
Sequence (Q920D2 whole entry): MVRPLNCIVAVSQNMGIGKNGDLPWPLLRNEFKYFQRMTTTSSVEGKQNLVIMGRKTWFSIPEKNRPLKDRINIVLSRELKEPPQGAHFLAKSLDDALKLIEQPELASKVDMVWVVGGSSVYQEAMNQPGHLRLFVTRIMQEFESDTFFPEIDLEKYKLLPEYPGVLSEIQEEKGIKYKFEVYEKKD
The reply should contain only the number, in µM.

Guide cases for IC50, answers given:
structure_smiles_string=COc1ccc(-c2nc3nc(N)nc(N)c3[nH]2)c(OC)c1 reported_value=0.9
structure_smiles_string=Nc1nc(N)c2[nH]c(-c3ccncc3)nc2n1 reported_value=18

QUERY: Reported IC50 for Nc1nc(N)c2[nH]c(-c3ccc(-c4ccccc4)cc3)nc2n1 : what is it?
RESULT: 30.1
